Cited source: PubChem BioAssay (NCI)

- Test system: ACHN renal
- measurement-protocol: NCI-60 one-dose screen, 48 h
- condition-context: 10 µM unless noted
The panel holds about 83,000 compounds, 20% with a hit somewhere; the sample as a whole holds those more often. Calls of active or inactive are those of the source. Rule for the calls: active = growth percent below 10; inactive = the rest.
# valid calls are active, inactive; nothing else

compound	discrete-label
Cc1ccc(C2=NN(C)C(=O)C3(CCCC3)C2)cc1	inactive
C=CCn1c(SCC(=O)Nc2ccc(C(=O)/C=C/c3cccc([N+](=O)[O-])c3)cc2)nnc1-c1c[nH]c2ccccc12	inactive
CC(=O)Nc1cccc(Nc2nc(N[C@@H](C)c3ccccc3)c3ccccc3n2)c1	inactive

Please find the next compound below.
# input How did this test come out for "COc1ccc(-n2c(/C=C3\C(=O)Nc4ccccc43)ccc2CO)cc1" ?
# output inactive

----------
- Test system: OVCAR-8 ovarian
- measurement-protocol: NCI-60 one-dose screen, 48 h (100 = growth as untreated, 0 = no growth, -100 = all killed)
- condition-context: 10 µM unless noted
About 83,000 compounds went through this panel and 20% of them were active in at least one assay; those are over-represented in the sample as a whole.
just bin them by growth: b0 (below 60%), b1 (60% to below 90%), b2 (90% or more)

molecule	discrete-label
C=CC(=O)N1CCC=C(c2cc3c(N[C@H](C)c4ccccc4)ncnc3[nH]2)C1	b1

# input Class label required: "O=C(CSc1nc2ccccc2c(=O)n1-c1ccc(Cl)cc1)N/N=C/c1ccc(N2CCCCC2)cc1"
# output b1

# input Class label required: "O=C(NCCn1ccnc1)c1ccc(-c2nc3ccc4[nH]ncc4c3c3c2CCCC3)cc1"
# output b1

----------
- Test system: HS 578T breast
- measurement-protocol: NCI-60 one-dose screen, 48 h
- condition-context: 10 µM unless noted
This is part of a sample that, as a whole, favours compounds with a hit. Of some 83,000 tested, about 20% had one in any assay. The source made the active and inactive calls. How the source made its calls: active means growth percent below 10; inactive means the rest.
# valid calls are Y for active, N for inactive; nothing else

compound	discrete-label
O=C(/C=C/c1ccc(F)cc1)c1ccc(O)cc1	N

# input How did this test come out for "CN1CCN(Cc2ccc(NC(=O)c3cncc(C#Cc4cnc5ccc(OCC6(C)COC6)nn45)c3)cc2C(F)(F)F)CC1" ?
# output Y

----------
- System: BT-549 breast
- measurement-protocol: NCI-60 one-dose screen, 48 h
- condition-context: 10 µM unless noted
This is part of a sample that, as a whole, favours compounds with a hit. Of some 83,000 tested, about 20% had one in any assay. The source made the active and inactive calls. Rule for the calls: active = growth percent below 10; inactive = the rest.
# valid calls are active, inactive; nothing else

# input How did this test come out for "C=C1CC[C@@H]2[C@](C)(CO)[C@H](O)CC[C@@]2(C)[C@@H]1C/C(O)=C1\CCOC1=O" ?
# output inactive

# input How did this test come out for "C#Cc1nc(C(C)=O)cs1" ?
# output inactive

# input How did this test come out for "COc1cc(OC)c(S(N)(=O)=O)cc1C(=O)/C=C/c1ccc(Cl)cc1" ?
# output active

# input How did this test come out for "Cc1ccc(-c2nnc(SCc3ccc(O)c4ncccc34)o2)cc1" ?
# output inactive

----------
- Tested on: CCRF-CEM leukemia
- measurement-protocol: NCI-60 one-dose screen, 48 h (100 = growth as untreated, 0 = no growth, -100 = all killed)
- condition-context: 10 µM unless noted
This is part of a sample that, as a whole, favours compounds with a hit. Of some 83,000 tested, about 20% had one in any assay.
growth values for the compounds below.
Your answer is read as %, so omit the unit and give the number.

Answered cases to consult:
CN1CCN(Cc2ccc(NC(=O)c3cncc(C#Cc4cnc5ccc(N6CCN(C)CC6)nn45)c3)cc2C(F)(F)F)CC1 -2.14
COc1cc(-c2nc(SCCC(C)C)nc(NNC(=O)c3ccncc3)c2C#N)cc(OC)c1OC 95.8
O=c1c2ccccc2nc(COc2ccccc2)n1NS(=O)(=O)c1ccc(Cl)cc1 97
CC(C)(C)c1ccc(C(=O)Nc2sc3c(c2C(N)=O)CC/C(=N\O)C3)cc1 10.1
CCCCCCCn1cc2c(N[C@H](C)c3ccccc3)ncnc2n1 99.6

# input Identify measured growth corresponding to "Cc1cc(C)c2sc(=O)n(Cc3nnc(SCCC(=O)O)o3)c2n1"
# output 56.6

# input Identify measured growth corresponding to "O=C(CCn1cc[n+](CC(=O)c2ccc(-c3ccccc3)cc2)c1)Nc1cccc2cccnc12"
# output 78.4

# input Identify measured growth corresponding to "CC[C@]12C=CCN3CC[C@@]4(c5cc(NC(=O)COc6cc(O)c7c(=O)cc(-c8ccccc8)oc7c6)c(OC)cc5N(C)[C@H]4[C@@](O)(C(=O)OC)[C@@H]1OC(C)=O)[C@@H]32"
# output -20.2

----------
growth values for the molecules below.
- Test system: MDA-MB-435 melanoma
- measurement-protocol: NCI-60 one-dose screen, 48 h (100 = growth as untreated, 0 = no growth, -100 = all killed)
- condition-context: 10 µM unless noted
Compounds without any hit were thinned out: in the full panel of roughly 83,000, 20% have a hit.
Your answer is read as %, so omit the unit and give the number.

Answered cases to consult:
molecule	growth / %
COc1ccc(/C=C(/C)c2ccc3ccc(OC)cc3[o+]2)c(O)c1	38
CCCCCc1ccc(S(=O)(=O)Nc2cc(-c3csc(NC(=O)CN4CCN(C)CC4)n3)ccc2OC)cc1	-84.1
COc1cc2oc(-c3cccc(C(=O)N[C@@H](CC(C)C)C(=O)OC(C)(C)C)c3)cc(=O)c2c(OC)c1OC	90
O=S(=O)(NCCNc1nccc(-n2cnc3ccccc32)n1)c1ccc(Br)cc1	108
Cc1c(F)cc(C(N)=O)cc1NCC(=O)Nc1ccc([N+](=O)[O-])cc1	99.8
CCO/C=N/C1=C(C#N)C(c2ccc(Cl)cc2)c2sc3c(C)cccc3c2O1 (centres undefined)	-49.6

# input Identify measured growth corresponding to "COc1cc(/C=C/C(=O)c2ccc(NC(=O)CSc3nnc(-c4ccc(-c5nc6ccc(Cl)cc6[nH]5)cc4)o3)cc2)cc(OC)c1OC"
# output 24.1

# input Identify measured growth corresponding to "CCOc1ccc(NC2=C(Cl)C(=O)c3nc(C)ccc3C2=O)cc1"
# output -83.7

----------
- Tested on: LOX IMVI melanoma
- measurement-protocol: NCI-60 one-dose screen, 48 h
- condition-context: 10 µM unless noted
- Experimental: Growth inhibition of the LOX IMVI human tumor cell line is measured as a screen for anti-cancer activity. Cells are grown in 96 well plates and exposed to the test compound for 48 hours. Compounds are tested at a single concentration, which is 10^-5 M for most compounds. The reported endpoint is percent growth (GI% or GIPRCNT), where numbers from 0 - 100% represent growth inhibition, and numbers from -100% - 0 represent cell death. For example, a value of 40 represents 60% growth inhibition. […]
This is part of a sample that, as a whole, favours compounds with a hit. Of some 83,000 tested, about 20% had one in any assay. Activity calls are given as the source filed them. The calls were made as follows: active = growth percent below 10; inactive = the rest.
# valid calls are active, inactive; nothing else

compound	discrete-label
CCN(CC)CCn1c2ccc(O)cc2c2sc3cc(OC)ccc3c(=O)c21	active
CN1CCN(Cc2ccc(NC(=O)c3cncc(C#Cc4cnc5ccc(OCC6(C)COC6)nn45)c3)cc2C(F)(F)F)CC1	active
Oc1cccc2ccc(-c3nnc(SCc4ccc(O)c5ncccc45)n3-c3ccccc3)nc12	active
COc1c(N2CC3CCCNC3C2)c(F)cc2c(=O)c(C(=O)N/N=C/c3ccc4c(c3)OCO4)cn(C3CC3)c12 (stereo not drawn)	active
C/C(=N\O)[C@H]1C[C@]23CC[C@]4(C)[C@H](CC[C@@H]5[C@@]6(C)CC/C(=N/O)C(C)(C)[C@@H]6CC[C@]54C)[C@H]2[C@H](C)C1(C)OC3	inactive
CCCSc1nc(Nc2ccc(/C(C)=N\NC(N)=S)cc2)c(C#N)c(-c2ccccc2)n1	inactive

# input How did this test come out for "COc1ccc([C@H]2c3[nH]c4ccccc4c3C[C@H]3C(=O)N(C4CCN(Cc5c(Cl)cccc5Cl)CC4)CC(=O)N23)c(OC)c1" ?
# output inactive

# input How did this test come out for "CC(=O)Nc1cccc(Nc2nc(N[C@@H](C)c3ccccc3)c3ccccc3n2)c1" ?
# output active

# input How did this test come out for "NS(=O)(=O)c1ccc(Nc2nc(N/N=C/CCc3ccccc3)nc(Nc3ccccc3)n2)cc1" ?
# output inactive

# input How did this test come out for "O=C(Nc1nc2ccc([N+](=O)[O-])cc2s1)Nc1ccccc1Br" ?
# output inactive

# input How did this test come out for "Cc1ccc(NC(=S)NNC(=S)Nc2ccc(C)cc2)cc1" ?
# output inactive

# input How did this test come out for "N#Cc1cccc(CN2CCC3=C(C2)C(=O)N(Cc2ccc(Cl)cc2)C2=NCCCN23)c1" ?
# output inactive

# input How did this test come out for "CCOC(=O)c1c(Nc2ccccc2)nn2c(-c3cccs3)ccnc12" ?
# output inactive

# input How did this test come out for COc1c(N2CC3CCCNC3C2)c(F)cc2c(=O)c(C(=O)N/N=C/c3ccc(N(C)C)cc3)cn(C3CC3)c12 (stereo not drawn) ?
# output active
